Experiment: Volume of distribution in rat
Assay type: ADME, organism-based
Conditions: in vivo
Record form. Attribute: Vd. Fill in for each entry.
Numbers only, in L/kg.

Request the reported Vd associated with Cc1nc(C)n(CC23CNCC[C@]2(c2ccc(Cl)c(Cl)c2)C3)n1 (single isomer, unassigned; enantiomer 1)
8.1

Shifting focus to the molecule that follows.
Query (molecule): Cc1cc(C)n(CC23CNCC[C@]2(c2ccc(Cl)c(Cl)c2)C3)n1 (single isomer, unassigned) ; field requested: Vd
6.9

###

Assay: Oral absorption in rat
Type: ADME, organism-based
Conditions: in vivo
property.label: Fa (%)
Give bare numbers, in %.

Can you look up the measured Fa of Cc1cc(C)n(CC23CNCC[C@]2(c2ccc(Cl)c(Cl)c2)C3)n1 (single isomer, unassigned) for me?
50

Now, please, on to the next molecule.
So what's the measured Fa for this one? Cc1nc(C)n(CC23CNCC[C@]2(c2ccc(Cl)c(Cl)c2)C3)n1 (single isomer, unassigned; enantiomer 1)
94

###

Molecular target: Sodium-dependent noradrenaline transporter (Homo sapiens, UniProt P23975)
Sequence (P23975 whole entry): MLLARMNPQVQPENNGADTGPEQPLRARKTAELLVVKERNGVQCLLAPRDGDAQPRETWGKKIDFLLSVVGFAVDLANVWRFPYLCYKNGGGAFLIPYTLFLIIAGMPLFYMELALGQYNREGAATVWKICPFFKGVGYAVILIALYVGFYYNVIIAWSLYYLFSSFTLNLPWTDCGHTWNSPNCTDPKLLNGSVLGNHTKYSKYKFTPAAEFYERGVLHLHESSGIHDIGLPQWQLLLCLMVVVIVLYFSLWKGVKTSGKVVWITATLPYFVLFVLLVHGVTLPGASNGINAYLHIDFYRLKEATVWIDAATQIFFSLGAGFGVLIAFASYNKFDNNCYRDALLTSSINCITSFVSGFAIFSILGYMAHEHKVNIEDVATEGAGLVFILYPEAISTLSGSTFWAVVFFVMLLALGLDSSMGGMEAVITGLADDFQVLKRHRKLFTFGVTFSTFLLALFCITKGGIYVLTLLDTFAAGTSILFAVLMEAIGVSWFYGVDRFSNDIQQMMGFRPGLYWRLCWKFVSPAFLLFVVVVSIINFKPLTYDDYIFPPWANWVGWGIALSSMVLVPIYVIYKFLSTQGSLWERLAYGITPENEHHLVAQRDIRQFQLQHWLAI
Assay: Displacement of [3H]nisoxetine from human recombinant NET by scintillation proximity assay
property.label: Ki (µM)
Numbers only, in µM.

// solved cases for Ki follow
Form field - read-out: Ki; system: Sodium-dependent noradrenaline transporter (Homo sapiens, UniProt P23975); submitted item: CC(C)c1nnnn1C[C@@]12CNCC[C@]1(c1ccc(Cl)c(Cl)c1)C2 (racemic)
0.398

Quick check: Ki on Sodium-dependent noradrenaline transporter (Homo sapiens, UniProt P23975), item Cc1nc(C)n(CC23CNCC[C@]2(c2ccc(Cl)c(Cl)c2)C3)n1 (stereo in doubt; 38) ?
1.58

Look up Ki with Sodium-dependent noradrenaline transporter (Homo sapiens, UniProt P23975) for this molecule: Clc1ccc([C@]23CCNCC2(Cn2cc4ccccc4n2)C3)cc1Cl (some centres undefined)
0.0501

# batch size: 2; output Ki per entry
1. Cc1cc(C)n(C[C@@]23CNCC[C@]2(c2ccc(Cl)c(Cl)c2)C3)n1 (racemic)
2. N#Cc1cccn1C[C@@]12CNCC[C@]1(c1ccc(Cl)c(Cl)c1)C2 (racemic)

1: 0.00158; 2: 0.0398

Please state Ki for every molecule in the list that follows.
1. Cc1nc(C)n(C[C@@]23CNCC[C@]2(c2ccc(Cl)c(Cl)c2)C3)n1 (racemic)
2. N#Cc1ccn(C[C@@]23CNCC[C@]2(c2ccc(Cl)c(Cl)c2)C3)n1 (racemic)
3. Cc1coc(C[C@@]23CNCC[C@]2(c2ccc(Cl)c(Cl)c2)C3)n1 (racemic)
4. Cc1ccn(CC23CNCC[C@]2(c2ccc(Cl)c(Cl)c2)C3)n1 (single isomer, unassigned; enantiomer 1)

[0.0398, 0.0251, 0.0316, 1]

###

Target: Cytochrome P450 1A2 (Homo sapiens)
Sequence (P05177 whole entry): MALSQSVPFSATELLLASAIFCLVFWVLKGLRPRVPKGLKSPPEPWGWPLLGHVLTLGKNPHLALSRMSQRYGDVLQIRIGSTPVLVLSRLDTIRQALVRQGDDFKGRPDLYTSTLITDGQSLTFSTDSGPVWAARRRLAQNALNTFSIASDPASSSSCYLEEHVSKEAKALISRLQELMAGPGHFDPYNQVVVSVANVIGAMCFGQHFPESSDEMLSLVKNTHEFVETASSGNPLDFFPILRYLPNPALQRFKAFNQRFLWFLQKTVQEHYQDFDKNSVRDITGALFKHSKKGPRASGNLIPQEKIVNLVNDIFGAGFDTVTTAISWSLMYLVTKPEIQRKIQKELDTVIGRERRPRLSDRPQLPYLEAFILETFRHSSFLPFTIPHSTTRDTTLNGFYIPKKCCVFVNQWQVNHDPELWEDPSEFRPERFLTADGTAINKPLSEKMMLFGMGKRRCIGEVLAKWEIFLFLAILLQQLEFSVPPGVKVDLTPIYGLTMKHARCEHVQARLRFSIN
property.label: IC50

Param item = Cc1csc(C23CNCC[C@]2(c2ccc(Cl)c(Cl)c2)C3)n1 (single isomer, unassigned; enantiomer 1) ; retrieve measured IC50.
> 6 µM

Each molecule below has a reported value. Please supply its IC50.
1. Cc1ccnn1CC12CNCC[C@]1(c1ccc(Cl)c(Cl)c1)C2 (single isomer, unassigned; enantiomer 2)
2. Cc1nc(C)n(CC23CNCC[C@]2(c2ccc(Cl)c(Cl)c2)C3)n1 (single isomer, unassigned; enantiomer 1)
3. Cc1ccn(CC23CNCC[C@]2(c2ccc(Cl)c(Cl)c2)C3)n1 (stereo in doubt)

1. > 10 µM
2. > 25 µM
3. > 10 µM
